# studySystem: HLA-A*0202 (human)
# test: competition with 125I-labeled probe peptide for purified HLA, gel filtration
# conditionSet: remark: other sources report otherwise
experimentalReadout: IC50 (nM)
The reply should be a number in nM, with the unit left off.

Could you tell me which IC50 is on file for ALFDIESKV (modifications not checked) [Peptide 1129.08 … (PSM.711)] ?
0.7

Here is the next binder: VLAGGFFLL (modifications not checked) [Peptide 1126.10 … (PSM.27)]
0.2
